# assayed.system: cyclooxygenase-2 (COX-2) (Homo sapiens, UniProt P35354)
# Construct: 5 μL of LPS is also added (in order to induce COX-2 activy); from tissue; host or cells: heparinized human whole blood, LPS-stimulated, with aspirin added
# Sequence (P35354 18-604): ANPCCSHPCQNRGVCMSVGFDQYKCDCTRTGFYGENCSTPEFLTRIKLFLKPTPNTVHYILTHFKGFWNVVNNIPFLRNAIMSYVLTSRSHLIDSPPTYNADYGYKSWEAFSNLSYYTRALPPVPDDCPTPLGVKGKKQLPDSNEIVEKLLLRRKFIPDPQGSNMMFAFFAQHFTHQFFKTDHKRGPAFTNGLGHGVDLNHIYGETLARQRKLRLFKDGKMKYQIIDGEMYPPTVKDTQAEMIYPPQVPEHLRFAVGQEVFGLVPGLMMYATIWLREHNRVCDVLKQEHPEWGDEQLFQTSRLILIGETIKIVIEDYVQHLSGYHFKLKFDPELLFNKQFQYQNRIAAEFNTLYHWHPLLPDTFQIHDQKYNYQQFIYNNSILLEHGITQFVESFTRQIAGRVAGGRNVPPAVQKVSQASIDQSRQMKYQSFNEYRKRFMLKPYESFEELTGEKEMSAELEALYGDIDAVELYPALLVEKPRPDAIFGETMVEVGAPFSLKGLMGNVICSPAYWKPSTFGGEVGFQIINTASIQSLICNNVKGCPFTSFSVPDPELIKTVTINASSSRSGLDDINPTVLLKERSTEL
# assay.summary: Inhibition of cyclooxygenase-2 (COX-2) activity in human blood (prostaglandin E2 levels after LPS, aspirin added)
# Assay type: cell-based
# applied.conditions: read-out: % inhibition COX-2 (1 μM), 1 μM test compound
quantity.name: inhibition at 1 µM (%)
Numeric only. Scale: %

Quick one: inhibition at 1 µM of CS(=O)(=O)c1ccc(-c2cnc(C#N)n2-c2ccc(F)cc2)cc1 ?
74

So what does the record say about inhibition at 1 µM for CCOc1ccc(-c2c(Cl)ncn2-c2ccc(S(C)(=O)=O)cc2)cc1 ?
100

Using the record for CS(=O)(=O)c1ccc(-n2cnc(Cl)c2-c2ccccc2)cc1 , report its inhibition at 1 µM.
82.6

Which inhibition at 1 µM is listed for Cc1ccc(-n2c(-c3ccc(S(C)(=O)=O)cc3)cnc2Cl)cc1 ?
83.6

Name the reported inhibition at 1 µM value associated with the molecule CS(=O)(=O)c1ccc(-c2cnc(Cl)n2-c2ccc(F)cc2)cc1
85.6

Given the molecule CS(=O)(=O)c1ccc(-n2cnc(Cl)c2-c2ccc(F)cc2)cc1 , what is its reported inhibition at 1 µM?
89

# query: inhibition at 1 µM of entry CS(=O)(=O)c1ccc(-n2cnc(Br)c2-c2ccc(F)cc2)cc1
85.2

GET /values?readout=inhibition at 1 µM&item= Cc1ccc(-c2c(Cl)ncn2-c2ccc(S(C)(=O)=O)cc2)cc1F
75.1

Value lookup for inhibition at 1 µM; key = Cc1ccc(-c2c(Cl)ncn2-c2ccc(S(C)(=O)=O)cc2)cn1
58.4

----------
# assayed.system: cyclooxygenase-1 (COX-1) (Homo sapiens, UniProt P23219)
# Construct: from tissue; host or cells: heparinized human whole blood
# Sequence (P23219 24-599): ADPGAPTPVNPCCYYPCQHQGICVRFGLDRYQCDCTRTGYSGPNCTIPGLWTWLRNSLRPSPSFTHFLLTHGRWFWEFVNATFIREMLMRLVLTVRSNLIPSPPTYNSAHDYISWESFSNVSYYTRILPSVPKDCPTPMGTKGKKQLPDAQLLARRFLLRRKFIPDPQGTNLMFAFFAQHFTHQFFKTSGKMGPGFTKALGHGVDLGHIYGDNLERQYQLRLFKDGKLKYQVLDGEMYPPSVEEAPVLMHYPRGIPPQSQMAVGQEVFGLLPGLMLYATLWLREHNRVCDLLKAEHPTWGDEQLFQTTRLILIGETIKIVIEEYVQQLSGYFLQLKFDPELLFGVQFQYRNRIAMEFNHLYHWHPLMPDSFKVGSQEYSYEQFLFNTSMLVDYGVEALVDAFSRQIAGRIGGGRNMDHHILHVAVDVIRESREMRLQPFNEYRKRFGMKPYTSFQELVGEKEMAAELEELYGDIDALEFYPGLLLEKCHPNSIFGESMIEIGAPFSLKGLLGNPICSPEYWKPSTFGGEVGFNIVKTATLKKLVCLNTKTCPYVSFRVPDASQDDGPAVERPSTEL
# assay.summary: Inhibition of cyclooxygenase-1 (COX-1) activity in human blood (thromboxane B2 levels after ionophore A23187)
# Assay type: cell-based
# applied.conditions: read-out: % inhibition COX-1 (10 μM), 10 μM test compound
Classes (inhibition at 10 µM): lower segment = under 40%, middle segment = from 40% up to 50%, upper segment = 50% and over

Categorize the following entry: CS(=O)(=O)c1ccc(-c2cnc(C#N)n2-c2ccc(F)cc2)cc1
upper segment

Hey, which category is CCOc1ccc(-c2c(Cl)ncn2-c2ccc(S(C)(=O)=O)cc2)cc1 in, do you know?
upper segment

Which bin should I file Cc1ccc(-c2c(Cl)ncn2-c2ccc(S(C)(=O)=O)cc2)cc1F under?
middle segment

Sort into band: CS(=O)(=O)c1ccc(-n2cnc(Cl)c2-c2ccc(Cl)nc2)cc1
middle segment

Class (by measured inhibition at 10 µM) for CS(=O)(=O)c1ccc(-n2cnc(Cl)c2-c2ccccc2)cc1
middle segment

Record CS(=O)(=O)c1ccc(-n2cnc(Cl)c2-c2ccc(F)cc2)cc1 — which class?
lower segment

Input CS(=O)(=O)c1ccc(-c2cnc(Cl)n2-c2ccc(F)cc2)cc1 ; output its category
upper segment

For this compound, which bin applies? Cc1ncn(-c2ccc(S(C)(=O)=O)cc2)c1-c1ccc(F)cc1
lower segment

Which bin should I file Cc1ccc(-n2c(-c3ccc(S(C)(=O)=O)cc3)cnc2Cl)cc1 under?
upper segment

Kindly state the category for this compound: CS(=O)(=O)c1ccc(-n2cnc(Br)c2-c2ccc(F)cc2)cc1
lower segment

Lab log: Cc1ccc(-c2c(Cl)ncn2-c2ccc(S(C)(=O)=O)cc2)cc1 — assign inhibition at 10 µM category
lower segment

----------
quantity.name: melting point

Sample CS(=O)(=O)c1ccc(-n2cncc2-c2ccc(OC(F)(F)F)cc2)cc1 — what was its melting point?
141 to 142 °C

What does the data say about its melting point? Entry: NS(=O)(=O)c1ccc(-n2cnc(Cl)c2-c2ccc(Cl)c(Cl)c2)cc1
251 °C

Recorded melting point of CS(=O)(=O)c1ccc(-n2cncc2-c2cnc(Cl)c(Cl)c2)cc1 , please.
192 to 198 °C

// lookup melting point for CS(=O)(=O)c1ccc(-n2cncc2-c2ccc(Cl)cc2)cc1
192 to 193 °C

Need melting point of CS(=O)(=O)c1ccc(-n2cnc(Cl)c2-c2cnc(Cl)c(Cl)c2)cc1 , thanks.
223 to 230 °C

Record request: melting point value, item Cc1ccc(-c2cncn2-c2ccc(S(C)(=O)=O)cc2)cc1
156 °C

Please give the measured melting point for this compound: CS(=O)(=O)c1ccc(-n2cncc2-c2ccc(F)cc2F)cc1
119 °C

Give its melting point value. Item: CC(=O)Nc1ccc(-c2[nH]c(-c3ccc(S(C)(=O)=O)cc3)nc2Cl)cc1
238 to 241 °C

Reported melting point, compound CCOc1cc(OCC)cc(-c2cncn2-c2ccc(S(C)(=O)=O)cc2)c1 : ____
100 to 101 °C

May I ask what melting point has been recorded for CSc1ccc(-c2cncn2-c2ccc(S(C)(=O)=O)cc2)cc1 ?
153 to 155 °C

Entry under review: CS(=O)(=O)c1ccc(-c2cnc(Cl)n2-c2ccccc2)cc1 . Reported melting point?
185 to 193 °C

----------
Structures can show the parent of a compound that is named as a salt.
quantity.name: melting point (°C)
Write the value in °C as a bare number.

// returns reported melting point for input CS(=O)(=O)c1ccc(-n2cncc2-c2ccccc2)cc1
164

Which measured melting point value corresponds to CS(=O)(=O)c1ccc(-n2cnc(Cl)c2-c2ccc(Cl)nc2)cc1 (as salt: HCl) ?
223

----------
Where a name gives a salt, the structure may show the parent alone.
Assign melting point to each entry below.

Any idea what its melting point is? The compound is Cc1ccc(-c2c(Cl)ncn2-c2ccc(S(C)(=O)=O)cc2)cc1Cl (as salt: HCl)
181 to 182 °C

What melting point value was documented for this compound, CS(=O)(=O)c1ccc(-n2cncc2-c2ccccc2F)cc1 ?
188 to 189 °C

Need melting point of NS(=O)(=O)c1ccc(-n2cncc2-c2ccc(F)cc2)cc1 , thanks.
196 to 197 °C

Entry CCCOc1ccc(-c2cncn2-c2ccc(S(C)(=O)=O)cc2)cc1 has what melting point?
167 to 169 °C

Field request: melting point | item: COCc1cccc(-c2c(Cl)ncn2-c2ccc(S(C)(=O)=O)cc2)c1 (as salt: HCl)
178 °C

Name the reported melting point value associated with the compound CS(=O)(=O)c1ccc(-n2cncc2-c2ccc(Cl)nc2)cc1
191 to 192 °C

Sample COc1ccc(-c2cncn2-c2ccc(S(C)(=O)=O)cc2)cc1 — what was its melting point?
185 to 187 °C

Which value of melting point has been reported for COc1cc(-c2cncn2-c2ccc(S(C)(=O)=O)cc2)ccc1C in the records?
174 to 175 °C

Query: melting point; subject: Cc1ccc(-c2cncn2-c2ccc(S(C)(=O)=O)cc2)cc1F
147 °C

----------
Hi there, I'd appreciate the recorded inhibition at 10 µM for every entry that follows.
# assayed.system: cyclooxygenase-2 (COX-2) (Homo sapiens)
# Construct: 5 μL of LPS is also added (in order to induce COX-2 activy); from tissue; host or cells: heparinized human whole blood, LPS-stimulated, with aspirin added
# assay.summary: Inhibition of cyclooxygenase-2 (COX-2) activity in human blood (prostaglandin E2 levels after LPS, aspirin added)
# Assay type: cell-based
# applied.conditions: read-out: % inhibition COX-2 (10 μM), 10 μM test compound
Entry rule: numbers only, all in %.

I have this molecule here, CS(=O)(=O)c1ccc(-c2cnc(C#N)n2-c2ccc(F)cc2)cc1 [Example 10] , and I need its recorded inhibition at 10 µM.
100

I'd like to know its inhibition at 10 µM. The molecule in question is Cc1ccc(-n2c(-c3ccc(S(C)(=O)=O)cc3)cnc2Cl)cc1 [Example 12]
100

What does the record list as inhibition at 10 µM for CS(=O)(=O)c1ccc(-n2cnc(Cl)c2-c2ccccc2)cc1 [4(3)] ?
96
